test system: HT29 colon; assay: NCI tumour cell line growth inhibition, 48 h

Compound: O=C(NC(CS)C(=O)O)c1cccc2c(=O)c3ccccc3[nH]c12 (stereo not drawn)
TGI: > 100 µM
//
Compound: CC1(C)O[C@@H]2[C@@H](COC(=O)c3ccccc3)C[C@@H](C#N)[C@@H]2O1
TGI: > 100 µM
//
Compound: c1cc(Sc2nc(Sc3ccncc3)nc(Sc3ccncc3)n2)ccn1
TGI: > 100 µM
//
Compound: O=c1c2ccccc2n(C[C@H]2CO2)c2ccccc12
TGI: 7.91 µM
//
Compound: O=C(CO)CC(=O)C(=O)Nc1ccccc1
TGI: > 100 µM
//
Compound: COc1cc(-c2nn(-c3cccc(NC(=O)Nc4cc(C(F)(F)F)cc(C(F)(F)F)c4)c3)cc2-c2ccncc2)ccc1Cl
TGI: 1.68 µM
//
Compound: CC(C)c1cc(CN(C)C)c(O)c(C(C)(C)C)c1
TGI: > 100 µM
//
Compound: O=C(CSc1nc2ccccc2s1)c1sc2sc3ccccc3[n+]2c1[O-]
TGI: > 100 µM

----------
Collected TGI values appear next to each entry.
system: HCC-2998 colon; test: NCI tumour cell line growth inhibition, 48 h
Assay readout: TGI (µM)

Compound: Cn1nc2ccc3nccc(N4CCN(CCO)CC4)c3c2n1
Assay readout: TGI
Units label: µM
Bound type: >
Reported measurement: 100

Compound: C=CC[N+]12CN3CN(CN(C3)C1)C2
Assay readout: TGI
Units label: µM
Bound type: =
Reported measurement: 55.8

Compound: COc1ccc(-n2nnnc2-c2c[nH]c3c(F)cc(F)cc23)cc1
Assay readout: TGI
Units label: µM
Bound type: >
Reported measurement: 100

Compound: CC[C@H](Nc1nc(NCc2cnc(C)cc2C)c2ncn(C(C)C)c2n1)[C@@H](C)O
Assay readout: TGI
Units label: µM
Bound type: =
Reported measurement: 2

Compound: CC(C)(C)N1C(C(=O)c2ccccc2)C1c1ccccc1 (centres undefined)
Assay readout: TGI
Units label: µM
Bound type: >
Reported measurement: 100

Compound: CC(=O)[CH-]C(=O)c1ccccc1.CC(=O)[CH-]C(=O)c1ccccc1.CC1(C)C2CCC1(C)C([O-])C2.CC1(C)C2CCC1(C)C([O-])C2.[Ti+4]
Assay readout: TGI
Units label: µM
Bound type: >
Reported measurement: 100

Compound: Cc1ccc(NN=NCCCCN)cc1
Assay readout: TGI
Units label: µM
Bound type: >
Reported measurement: 100

Compound: O=c1c2ccccc2n(C[C@H]2CO2)c2ccccc12
Assay readout: TGI
Units label: µM
Bound type: =
Reported measurement: 3.44

Compound: Cc1nc(Nc2ccccc2Cl)sc1C(=O)CC(=O)C(=O)Nc1c(Cl)cccc1Cl
Assay readout: TGI
Units label: µM
Bound type: >
Reported measurement: 100

Compound: N=C(c1ccc2ccccc2c1)c1ccccc1Cc1ccccc1
Assay readout: TGI
Units label: µM
Bound type: >
Reported measurement: 100

Compound: Oc1cc(Br)cc2cccnc12
Assay readout: TGI
Units label: µM
Bound type: =
Reported measurement: 98.2

Compound: O=c1cc2ccccc2nn1Cc1cccc(Cl)c1
Assay readout: TGI
Units label: µM
Bound type: >
Reported measurement: 100

Compound: COC(=O)Nc1nc2cc(OC)c(OC)cc2c(=O)[nH]1
Assay readout: TGI
Units label: µM
Bound type: >
Reported measurement: 100

Compound: N#Cc1c(NN)nc(NN)c(C#N)c1-c1ccccc1
Assay readout: TGI
Units label: µM
Bound type: >
Reported measurement: 100

Compound: C=CC(=O)N1CCN(c2nc(=O)n(-c3c(C)ccnc3C(C)C)c3nc(-c4c(O)cccc4F)c(F)cc23)[C@@H](C)C1
Assay readout: TGI
Units label: µM
Bound type: =
Reported measurement: 35.9

Compound: Cc1ccc(/C=C2/SC(Nc3nc(-c4csc(NC5=NC(=O)/C(=C\c6ccc(C)cc6)S5)n4)cs3)=NC2=O)cc1
Assay readout: TGI
Units label: µM
Bound type: =
Reported measurement: 27.7

Compound: COc1cc2cc(Oc3ccc(NC(=O)Nc4cccc(C(F)(F)F)c4)cc3)c(C)nc2cc1OC
Assay readout: TGI
Units label: µM
Bound type: =
Reported measurement: 50

Compound: COc1ccc(-c2c(=O)[nH]n3c(=S)nc(-c4ccccc4)[nH]c23)cc1OC
Assay readout: TGI
Units label: µM
Bound type: =
Reported measurement: 36.1

Compound: C/C(=N/Nc1nc2ccccc2n1C)c1ccccn1
Assay readout: TGI
Units label: µM
Bound type: =
Reported measurement: 15.6

Value source: PubChem BioAssay (NCI)
